The reported numbers originate from PubChem BioAssay (NCATS).

Assay protocol: Primary qHTS for inhibitors of nuclear receptor binding SET domain protein 2 (NSD2) in an RCH-ACV wild type WT cells (2C) (AID 1645877); further: nearly all actives have a fitted effect of over 70% in size
Measurement setup: RCH-ACV (leukaemia line) NSD2 WT (2C) viability, CellTiter-Glo, 72 h; series mostly up to 44.9 µM
Results filed as inconclusive are left out. Activity calls are given as the source filed them. The call rests on the fitted dose curve; in most records, active means well fitted inhibition curve with a large enough effect; inconclusive means small, poorly fitted or top-dose-only effect; inactive means no such curve, though single readings can be large or run the other way.
Field 'call' accepts yes (1) = active, no (0) = inactive

- O=C(Nc1ccc(CN2CCOCC2)cc1)c1ccc(-c2cccc(Cl)c2)o1: yes (1)
- CCC(C)CNCC(=O)N1CCc2sccc2C1COc1cccc(C)c1 (stereo not drawn): yes (1)
- CCCOc1ccc(CCc2nc3cc(-c4c(C)noc4C)ccc3n2CCN2CCOCC2)cc1: yes (1)
- Cc1cc(-c2cnc(N)c3c(-c4ccc5scnc5c4)csc23)n(C)n1: yes (1)
- CC(=O)OC1C(O)CC2(C)C(CCC3(C)C2CC=C2C4C5(CCC(CO[C@@H]6O[C@H](CO)[C@@H](O)[C@H](O)[C@H]6O)(OC5=O)C4(C)O)C(O)CC23C)C1(C)C (stereo partly drawn): no (0)
- Cc1cc(Nc2nc(-c3ccccc3)nc3ccccc23)n[nH]1: yes (1)
- Cn1cc(-c2ccc3c(c2)CCN3C(=O)Cc2cccc(C(F)(F)F)c2)c2c(N)ncnc21: no (0)
- CN1c2c(nc(N)[nH]c2=O)NC[C@@H]1CNc1ccc(C(=O)N[C@@H](CCC(=O)O)C(=O)O)cc1: no (0)

Identify the outcome logged in this assay for the molecule shown: `O=c1[nH]cnc2c([C@@H]3N[C@H](CO)[C@@H](O)[C@H]3O)c[nH]c12`
no (0)

What do you have for CC1OC2OC(=O)C3(C)CC4C5(CO5)C5=CC(=O)OC(C)(C)C5=CC(=O)C4(C)C(C1=O)C23 (stereo not drawn) ?
yes (1)

Now consider `CC(=O)O[C@@H]1[C@@H](OC(C)=O)[C@H](C)O[C@@H](O[C@H]2[C@@H]3C=CO[C@@H](O[C@@H]4O[C@H](CO)[C@@H](O)[C@H](O)[C@H]4O)[C@@H]3[C@@]3(CO)O[C@@H]23)[C@@H]1OC(=O)/C=C/c1ccccc1` .
yes (1)

Same question, `Clc1ccc(Cn2c(Cc3ccccc3)nc3ccccc32)cc1` this time
yes (1)

Ok, now `c1ccc(-c2ccc(CNc3nc(-c4ccccn4)nnc3-c3ccccc3)cc2)cc1`
yes (1)

Record: `C[C@@H]1CCCN1CCc1cc2cc(-c3ccc(C#N)cc3)ccc2o1`
yes (1)

Ok, now COc1ccc(C2Oc3c(OC)cc(CCCO)cc3C2COC2OC(CO)C(O)C(O)C2O)cc1OC (stereo not drawn)
no (0)

Next up: `CC(=O)c1c(C)cc2cccc(O)c2c1O[C@@H]1O[C@H](CO)[C@@H](O)[C@H](O)[C@H]1O`
yes (1)

Also `COc1ccccc1C(=O)Nc1cc2c(cc1N1CCCC1)n(C)c(=O)n2C` ?
yes (1)

* * *

Tested on: astro
Assay protocol: Drug repurposing screens with cells derived from glioblastoma tumor samples (AID 1345199); further: nearly all actives have a fitted effect of over 40% in size; further: potency means the concentration at half of the fitted maximal effect
Measurement setup: viability, ATP luminescence, 48 h; series mostly up to 45.9 µM
Results filed as inconclusive are left out. Active and inactive are the calls of the source. Calls come from the whole dose curve; as a rule, active = well fitted inhibition curve with a large enough effect; inconclusive = small, poorly fitted or top-dose-only effect; inactive = flat fitted curve, though single readings scatter.
Observable: Potency

The examples below pair each entry with its known result.
• CCC(=O)O = inactive
• C/C=C1\NC(=O)[C@H]2CSSCC/C=C/[C@H](CC(=O)N[C@H](C(C)C)C(=O)N2)OC(=O)C(C(C)C)NC1=O (some centres undefined) = 0.708 µM (active)
• CC1(C)S[C@@H]2[C@H](NC(=O)[C@H](N)c3ccccc3)C(=O)N2[C@H]1C(=O)OCOC(=O)[C@@H]1N2C(=O)C[C@H]2S(=O)(=O)C1(C)C = inactive
• COc1cc([C@@H]2c3cc4c(cc3C(O[C@@H]3O[C@@H]5COC(c6cccs6)O[C@H]5[C@H](O)[C@H]3O)C3COC(=O)[C@@H]32)OCO4)cc(OC)c1O (some centres undefined) = 12.6 µM (active)
• C=Cc1ccccc1 = inactive
• CN=C(NC)NCc1ccccc1 = inactive
• O=P(O)(O)C(O)(Cc1cnc2ccccn12)P(=O)(O)O = inactive
• COc1cc2c(c(OC)c1OC)-c1c(cc3c(c1OC)OCO3)C[C@@H](C)[C@](C)(O)C2 = inactive

Would you mind telling me what Potency value was observed for `C/C(=C(\CCOC(=O)c1ccccc1)SS/C(CCOC(=O)c1ccccc1)=C(/C)N(C=O)Cc1cnc(C)nc1N)N(C=O)Cc1cnc(C)nc1N` ?
inactive

* * *

Tested on: KB-3-1
Assay protocol: Cytotoxic Profiling of Annotated Libraries Using Quantitative High-Throughput Screening (AID 1296008); further: on the % scale 0 is the no-effect control and ±100 the full control effect; nearly all actives have a fitted effect of over 60% in size
Measurement setup: Five cell lines viability, CellTiter-Glo ATP luminescence, 48-72 h; stronger effect = lower value
Results filed as inconclusive are left out.
Observable: max response (%)
Write the number in % without appending the unit.

- O=P(O)(O)C(O)(Cc1cnc2ccccn12)P(=O)(O)O: -1.58
- C=C1C(=O)OC2/C=C(\C)CC/C=C(\C=O)C(OC)C(OC(=O)C(C)CC)C12 (centres undefined): -2.57
- COc1ccccc1-c1ccc(-c2cn(C(=O)N3CCCCC3Cc3ccccc3)nn2)cc1 (centres undefined): 1.87
- CC(=O)O[C@H]1CC(C)(C)CC2[C@]13CO[C@@]21CCC2[C@@]4(C)CC[C@H](O[C@@H]5OC[C@H](O[C@@H]6O[C@H](CO)[C@@H](O)[C@H](O)[C@H]6O[C@@H]6OC[C@@H](O)[C@H](O)[C@H]6O)[C@H](O)[C@H]5O[C@@H]5O[C@H](CO)[C@@H](O)[C@H](O)[C@H]5O)[C@@](C)(CO)C4CC[C@@]2(C)[C@]1(C)C[C@H]3O (some centres undefined): 4.15
- CC(=O)O[C@H]1C[C@@](O)(C(C)C)[C@@H]2[C@@H](OC(=O)c3ccc(O)cc3)CC(C)=CC[C@@]12C: 6.43

Given the entry `O=C(O)c1ccccc1[O-].O=C(O)c1ccccc1[O-].[Zn+2]` , report its measured max response.
-8.24

Field entry: C/C=C(/C)C(=O)O[C@@H]1C[C@@H](OC(=O)CC(C)C)C2(C)C3C(=O)C=C(C)C2C3C1(C)C (some centres undefined)
5.54

`CC(C)(Cc1nc(-c2ccc(O)cn2)no1)C(=O)NC1=C(C(=O)O)CCCC1` , same question.
2.15

What about this compound? `O=C1Nc2ccccc2-c2nc3ccccc3c(=O)n2-c2c(O)cccc21`
0.451

One more compound: `Fc1ccc(CN2CCC(Nc3ccc(C(F)(F)F)nn3)CC2)cc1F`
-12.1

* * *

System: OV90
Assay protocol: Primary qHTS to identify gynecologic anti-cancer compounds using libraries of approved drugs and bioactive compounds (AID 1345084); further: nearly all actives have a fitted effect of over 55% in size
Measurement setup: Gynecologic cancer cell panel viability, ATPlite luminescence, 48 h; series mostly up to 57.5 µM
Results filed as inconclusive are left out. Active and inactive are the calls of the source. The call rests on the fitted dose curve; in most records, active means well fitted cell-killing curve with a large enough effect; inconclusive means small, poorly fitted or top-dose-only effect, or effect the other way; inactive means flat fitted curve, though single readings scatter.
Returns: one label drawn from YES = active, NO = inactive

Answered examples (3):
• CCOC(=O)CCNc1cc(N2CCc3ccccc3CC2)nc(-c2cccnc2)n1 = NO
• C=C1C(=O)OC2C1CCC1(C)C(O)CCC(=C)C21 (stereo not given) = NO
• COc1ccc2cc(-c3cc(-c4cc(Cl)cc(Cl)c4)nn3C(C)c3ccc(C(=O)NCCC(=O)O)cc3)ccc2c1 (stereo not given) = NO

What classification did `C=C[C@](C)(O)CC[C@H]1C(C)=CC(=O)[C@H]2C(C)(C)CCC[C@]12C` end up with in this test?
NO

Now the molecule `CCNC(=O)C#Cc1ccc2c(C(=Nc3ccc(CN(C)C)cc3)c3ccccc3)c(O)[nH]c2c1`
YES

Now consider `O=C(NC1CCC1)c1ccc(C#Cc2cccc(F)c2)nc1` .
NO

Can you check `CC(=O)N1CCN(CCOc2ccc(C3CCN(C4=Nn5c(nnc5C(F)(F)F)CC4)CC3)cc2)CC1` next?
NO

Let us now turn to `CC(C)=CCC[C@](C)(O[C@@H]1O[C@H](CO[C@@H]2OC[C@@H](O)[C@H](O)[C@H]2O)[C@@H](O)[C@H](O)[C@H]1O)[C@H]1CC[C@]2(C)[C@@H]1[C@H](O)C[C@@H]1[C@@]3(C)CC[C@H](O[C@@H]4O[C@H](CO)[C@@H](O)[C@H](O)[C@H]4O)C(C)(C)[C@@H]3CC[C@]12C`
NO

Then this molecule: `Cc1c(Cl)cccc1S(=O)(=O)Nc1nc(NCCc2ccccc2)nc2c1CN(Cc1ccccc1)CC2`
NO

What do we get for `Cn1c(SCC(=O)N2CCC[C@H]2C(=O)Nc2ccccc2-c2ccccc2)nc2ccccc21` ?
NO

* * *

Tested on: CRL-7250
Assay protocol: Cytotoxic Profiling of Annotated Libraries Using Quantitative High-Throughput Screening (AID 1296008); further: on the % scale 0 is the no-effect control and ±100 the full control effect; nearly all actives have a fitted effect of over 60% in size
Measurement setup: Five cell lines viability, CellTiter-Glo ATP luminescence, 48-72 h; stronger effect = lower value
Results filed as inconclusive are left out. The source made the active and inactive calls. Calls follow the shape of the dose curve; as a rule, active = well fitted inhibition curve with a large enough effect; inconclusive = small, poorly fitted or top-dose-only effect; inactive = flat fitted curve, though single readings scatter.
Readings of max response for the listed molecules

See these solved cases before continuing.
• Nc1nc2c(ncn2C2OC3COP(=O)(O)OC3C2O)c(=O)[nH]1 (stereo unspecified) = -27.3% (inactive)
• CC#CCn1c(N2CCCC(N)C2)nc2c1c(=O)n(Cc1nc(C)c3ccccc3n1)c(=O)n2C (stereo unspecified) = 0.556% (inactive)
• COc1ccc2c(c1O[C@H]1CCNC1)CCC2 = -1.86% (inactive)

Field: max response (CRL-7250). Entry: `CCCCCCOC(=O)/N=C(\N)c1ccc(NCc2nc3cc(C(=O)N(CCC(=O)OCC)c4ccccn4)ccc3n2C)cc1`
-1.92% (inactive)

Consider next the molecule `C[C@@H](Nc1ncnc2[nH]c(-c3ccc(O)cc3)cc12)c1ccccc1` in the same way.
-9.15% (inactive)

Can you check C/C=C(\C)C(=O)OC1C(C)C2(O)C(C=C(CO)CC3(O)C(=O)C(C)=CC32)C2C(C)(C)C12OC(=O)C(C)C (stereo unspecified) next?
-36% (inactive)
